B1: glmS ribozyme (parent)
chain: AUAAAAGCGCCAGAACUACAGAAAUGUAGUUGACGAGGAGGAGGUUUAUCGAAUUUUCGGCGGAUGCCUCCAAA

Variants of: B1
Assay: self-cleavage kobs at 40 uM GlcN6P; higher = faster cleavage; RNA array
Conditions: with glucosamine-6-phosphate
Variants at the floor of the assay were thinned out.
Observation type: self-cleavage kobs at 40 uM GlcN6P

> print(dat)
                              sequence.chain  experimental.result
 1  AUAAAAGCGCCAGAACUACAGAAAUGUAGUUGACGAGGUGGAGGUUUAUCGAAUUUUCGGCGGAUGCCUCCAAA [A39U]         0.000604 s⁻¹
 2  AUAAAAGUGCCAGAACUACAGAAAUGUAGUUGACGAGGAGGAGGUUUAUGGAAUUUUGGGCGGAUGCCUCUAAA [C8U C50G C58G C71U]         0.000808 s⁻¹
 3  AUAAAAGCGCCAGAACUACAGAAAUGUAGUUGACGAGGAGGAUGUUUAUCGAAUUUUCGGGGGAUGCCUCCAAA [G43U C61G]          < 1e-05 s⁻¹
 4  AUAAAAGCGCCAGAGCUACAGAAAUGUAGUUGACGAGGAGGAGGUUUAUCGAAUUUUCGGCGGAUGCCUCAAAA [A15G C71A]         0.000251 s⁻¹
 5  AUAAAAGCGCCUGAACUACAGAAAUGUAGUUGACGAGGAGGAGGUUUAUCGAAUUUUCGGCGGAUGCCUGCAAA [A12U C70G]         0.000124 s⁻¹
 6  AUAAAAUCGCCAGAACUACAGAAAUGUAGUUGACGAGGAGUAGGUAUAUCGAAUUUUCGGCUGAUGCCUCCAAA [G7U G41U U46A G62U]          < 1e-05 s⁻¹
 7  AUAAAAGCGCCAGAACUACAGAAAUGUAGUUGACGAGGAGGAGCUUUAUCGAAUUUUCGGCGGAUGUCUCCAAA [G44C C67U]          5.1e-05 s⁻¹
 8  AUAAAGGCGCCAGAACUACAGAAAUGUAGUUGACGGGGAGGAGGUUUAUCGAAUUUUCGGCGGAUGCCUCCAAA [A6G A36G]          < 1e-05 s⁻¹
 9  AUAAAAGGGCCAUAACUACAGAAAUGUAGUUGACGAGGAGGAGGUUUAUCCAAUUUUCGGCGGGUGCCUCCAAA [C8G G13U G51C A64G]          < 1e-05 s⁻¹
10  AUAAAAGCGCCAGAACUACAGAAAUGUAGUUGACGAGGAGGAGGUUUAUCGAAAAUUCGGCGGAUGCCUCCAAA [U54A U55A]          0.00147 s⁻¹
11  AUAAAAGCGCCAGGACUACAGAAAUGUAGUUGAGGAGGAGGAGGUUUAUCGAAUUUUCGGCGGAUGCCUCCAAA [A14G C34G]          < 1e-05 s⁻¹
12  AUAAAAACUCCAGAACUACAGAAAUGUAGUUGACGAGGAGGAGGUUUGUCGAAUUUUCGGCGGAUGCCUCCAAA [G7A G9U A48G]          < 1e-05 s⁻¹
13  AUAAAAGCGCCAGAACUACAGAAAUGUAGUUGACGAGGAGGAGGUUUAUCGAAUUUUCGGCGGAUGGCUACAAA [C67G C70A]          < 1e-05 s⁻¹
14  AUAAAAGCGCCAGAACUACAGAAAUGUAGUUGACGAGGCGGAGAUUUAUCGAAUUUUCGUCGGAUGCUUCCAAA [A39C G44A G60U C68U]          < 1e-05 s⁻¹
15  AUAAAAGCGCCAGAACUACAGAAAUGUAGUUGACGAGGAGGAGGUUAAUCGAAUUUUCGGCGGAUGUCUCCAAA [U47A C67U]          0.00025 s⁻¹
16  AUAAAAGCUCCAGAACUACAGAAAUGUAGUUGCCGCGGAGGAGGUCUAUCGAAUUUUCGGCGGAUGCGUCCAAA [G9U A33C A36C U46C C68G]          < 1e-05 s⁻¹
17  AUAAAAGCGCCAGAACUACAGAAAUGUAGUUCACGAGGAGGAUGUUCAUCGAAUUUUCGGCGGAUGCCUCCAAA [G32C G43U U47C]          < 1e-05 s⁻¹
18  AUAAAAGCGCCAGAAUUACAGAAAUGUAGUUGACGAGGAGGAGGUUUAUCGAAUUUUCGACGGAUGCCUCCAAA [C16U G60A]          < 1e-05 s⁻¹
19  AUAAAAGCGCCAAAACUACAGAAAUGUAGUUGACGAGGAGGAGGUUUAUCGAAUUUUCGGCUGAUGCCUUCAAA [G13A G62U C70U]          < 1e-05 s⁻¹
20  AUAAAAGCGCCGGAACUACAGAAAUGUAGUUGACGAGGAGGUGGUUUAUCGACUUUUCGGCGGAUGCCUCCAAA [A12G A42U A53C]          < 1e-05 s⁻¹
21  AUAAAAGCGCCAGAGCUACAGAAAUGUAGUUGACGAGGAGGAGGUUUAUCGAAUUUUCGGCGGAUUCCUCCAAA [A15G G66U]         6.81e-05 s⁻¹
22  AUAAAAGCGCCAGUACUACAGAAAUGUAGUUGACGGGGAGGAGGUUUAUUGAAUUUUCGGAGGAUGCCUCCAAA [A14U A36G C50U C61A]          < 1e-05 s⁻¹
